Attribution: patent US11679107B2

molecular target: SF3b complexes (Homo sapiens, UniProt O75533+Q7RTV0); construct: endogenous in cells; host or cells: Nuclear extracts; A HeLa S3 extract preparation is described for the in vitro splicing assay; experiment: Scintillation proximity assay (SPA) with [3H]-labelled pladienolide probe; assay type: binding; details: SF3B1 (WT); geometric mean; read-out: SPA-ATS GMean IC50 (nM) SF3B1 (WT)
Measured quantity: log10 of IC50 (log10 of the value in nM)
Hi team, quick reminder: these entries are log10 of IC50 (nM).

Examples with answers:
CC(=O)N1CCC(n2nnc3c(F)cc(/C=C(\C)[C@H]4OC(=O)C[C@H](O)CC[C@H](C)[C@@H](OC(=O)N5CCNCC5)/C=C/[C@@H]4C)cc32)CC1 [Compound 253]; 0.28
C/C(=C\c1cnn(C)c1)[C@H]1OC(=O)C[C@H](O)CC[C@H](C)[C@@H](OC(=O)N2CCN(C)CC2)/C=C/[C@@H]1C [Compound 103]; 2.41
C/C(=C\c1cccc(S(=O)(=O)N2CCC(F)(F)C2)c1)[C@H]1OC(=O)C[C@H](O)CC[C@H](C)[C@@H](OC(=O)N2CCN(C)CC2)/C=C/[C@@H]1C [Compound 204]; 1.37

Supply recorded log10 of IC50 for C/C(=C\c1cc(F)cc(N2CCC[C@H]2CO)c1)[C@H]1OC(=O)C[C@H](O)CC[C@H](C)[C@@H](OC(=O)N2CCN(C)CC2)/C=C/[C@@H]1C [Compound 15] here.
0.80

Supply recorded log10 of IC50 for C/C(=C\c1cc(F)cc(N2CCN(CCO)C2=O)c1)[C@H]1OC(=O)C[C@H](O)CC[C@H](C)[C@@H](OC(=O)N2CCN(C)CC2)/C=C/[C@@H]1C [Compound 65] here.
0.45

====

tested on: Panc 05.04 cells (SF3b K700E mutant); experiment: Cell proliferation and viability, CellTiter-Glo, 72 hours; format: cell-based; conditions: 72 h; PANC0504.1; -100% = cidal, 0% = static, 100% = uninhibited growth
Let's look at some compounds and their measured CTGlo-ATS Mean MinResponse % 72 h PANC0504.1.
The reply should contain only the number, in %.

Examples with answers:
C/C(=C\c1cccc(S(=O)(=O)NC(C)(C)C)c1)[C@H]1OC(=O)C[C@H](O)CC[C@H](C)[C@@H](OC(=O)N2CCN(C)CC2)/C=C/[C@@H]1C; −94.342
C/C(=C\c1cccc(N2CCN(CCO)CC2)c1)[C@H]1OC(=O)C[C@H](O)CC[C@H](C)[C@@H](OC(=O)N2CCC(N3CCCCC3)CC2)/C=C/[C@@H]1C; −88.783
C/C(=C\c1ccc(C)c(S(=O)(=O)N2CCCC2)c1)[C@H]1OC(=O)C[C@H](O)CC[C@H](C)[C@@H](OC(=O)N2CCN(C)CC2)/C=C/[C@@H]1C; −94.627

Supply recorded CTGlo-ATS Mean MinResponse % 72 h PANC0504.1 for `C/C(=C\c1cccc(S(=O)(=O)N2CCC(F)(F)C2)c1)[C@H]1OC(=O)C[C@H](O)CC[C@H](C)[C@@H](OC(=O)N2CCN(C)CC2)/C=C/[C@@H]1C` here.
−94.081

Supply recorded CTGlo-ATS Mean MinResponse % 72 h PANC0504.1 for C/C(=C\c1cccc(S(=O)(=O)NC(C)C)c1)[C@H]1OC(=O)CC(O)CCC(C)[C@@H](OC(=O)N2CCN(C)CC2)/C=C/[C@@H]1C (stereo in doubt) here.
−93.368
